target: UniProt:P0DTD1; test: SARS-CoV-2 3C-like (3CL) protease fluorescence assay (FRET); conditions: recombinant SARS-CoV-2 3CL-protease 10 nM, 30 min preincubation, peptide substrate, duplicate
pIC50: −log10 of the molar value.
reported.metric: pIC50

Before answering, review these 2 worked examples.
| entry.smiles | assayed.target | pIC50 |
| --- | --- | --- |
| CC(C)C[C@@H](C(=O)N1C[C@]2(C[C@H]1C#N)C(=O)Nc1ccccc12)N(C)C(=O)CC(=O)Nc1ccncc1 | UniProt:P0DTD1 | > 7.00 |
| CC(C)C[C@@H](C(=O)N1C[C@]2(C[C@H]1C#N)C(=O)Nc1ccccc12)N(C)C(=O)CC(=O)NC[C@H](C)O | UniProt:P0DTD1 | > 7.00 |

Next molecule, pIC50 to be filled in.
Looking up CC(C)C[C@@H](C(=O)N1C[C@]2(C[C@H]1C#N)C(=O)Nc1ccccc12)N(C)C(=O)CC(=O)N[C@H](C)CO , I found its pIC50 recorded as > 7.00

----------
target: SARS-CoV-2 3CL-protease (Severe acute respiratory syndrome coronavirus 2 (2019-nCoV) (SARS-CoV-2), UniProt P0DTD1); assay: SARS-CoV-2 3C-like (3CL) protease fluorescence assay (FRET); details: recombinant SARS-CoV-2 3CL-protease 10 nM, 30 min preincubation, peptide substrate, duplicate
Each record here notes measured IC50.

Before answering, review these 5 worked examples.
| entry.smiles | experimental.result |
| --- | --- |
| CC(C)C[C@@H](C(=O)N1C[C@]2(C[C@H]1C#N)C(=O)Nc1ccccc12)N(C)C(=O)CC(=O)N[C@H](C)C(F)(F)F | < 100 nM |
| CC(C)C[C@@H](C(=O)N1C[C@]2(C[C@H]1C#N)C(=O)Nc1ccccc12)N(C)C(=O)CC(=O)Nc1ccc(F)cc1F | < 100 nM |
| CC(C)C[C@@H](C(=O)N1C[C@]2(C[C@H]1C#N)C(=O)Nc1ccccc12)N(C)C(=O)CC(=O)c1cc2c(F)cc(F)cc2[nH]1 | < 100 nM |
| CC(C)C[C@@H](C(=O)N1C[C@]2(C[C@H]1C#N)C(=O)Nc1ccccc12)N(C)C(=O)CC(=O)NCC(F)F | < 100 nM |
| CC(C)C[C@@H](C(=O)N1C[C@]2(C[C@H]1C#N)C(=O)Nc1ccccc12)N(C)C(=O)CC(=O)Nc1ccccc1 | < 100 nM |

Next molecule, IC50 to be filled in.
Looking up CC(C)C[C@@H](C(=O)N1C[C@]2(C[C@H]1C#N)C(=O)Nc1ccccc12)N(C)C(=O)CC(=O)Nc1ccccc1F , I found its IC50 recorded as < 100 nM

----------
Each record here notes measured pEC50.
test system: 229E human corona virus (hCoV); experiment: 229E live virus assay (CPE, ATPlite) in MRC-5 cells; type: cell-based, hCoV-229E; settings: Human coronavirus 229E, MRC5, 144 h; MRC-5 cells, MOI 0.05, 6 days at 34° C., ATPlite readout, duplicate; read-out: 229E EC50
pEC50: −log10 of the molar value.

Before answering, review these 2 worked examples.
| molecule | assayed.target | experimental.result |
| --- | --- | --- |
| CC(C)C[C@@H](C(=O)N1C[C@]2(C[C@H]1C#N)C(=O)Nc1ccccc12)N(C)C(=O)CC(=O)c1cc2c(F)cc(F)cc2[nH]1 [Compound 6] | 229E human corona virus (hCoV) | > 7.00 |
| CC(C)C[C@@H](C(=O)N1C[C@]2(C[C@H]1C#N)C(=O)Nc1ccccc12)N(C)C(=O)CC(=O)OC(C)(C)C [Compound 5] | 229E human corona virus (hCoV) | > 7.00 |

Looking up CC(C)CC(C(=O)Nc1cc(F)cc(F)c1)C(=O)N(C)[C@@H](CC(C)C)C(=O)N1C[C@]2(C[C@H]1C(N)=O)C(=O)Nc1ccccc12 (some centres unmarked) [Compound 2] , I found its pEC50 recorded as 6.00 to 7.00

Looking up CC(C)C[C@@H](C(=O)N1C[C@]2(C[C@H]1C#N)C(=O)Nc1ccccc12)N(C)C(=O)CC(=O)Nc1ccc(F)cc1F [Compound 1] , I found its pEC50 recorded as > 7.00

Looking up CC(C)(C)C[C@H](NC(=O)C(C)(C)C(=O)Nc1cc(F)ccc1F)C(=O)N1C[C@]2(C[C@H]1C#N)C(=O)Nc1ccccc12 [Compound 11] , I found its pEC50 recorded as 6.00 to 7.00

----------
target: SARS-CoV-2 3CL-protease (Severe acute respiratory syndrome coronavirus 2 (2019-nCoV) (SARS-CoV-2)); assay: SARS-CoV-2 3C-like (3CL) protease fluorescence assay (FRET); settings: recombinant SARS-CoV-2 3CL-protease 10 nM, 30 min preincubation, peptide substrate, duplicate
reported.metric: IC50

Looking up CC(C)C[C@@H](C(=O)N1C[C@]2(C[C@H]1C#N)C(=O)Nc1ccccc12)N(C)C(=O)CC(=O)N[C@@H](C)CO , I found its IC50 recorded as < 100 nM

----------
target: SARS-CoV-2 3CL-protease (Severe acute respiratory syndrome coronavirus 2 (2019-nCoV) (SARS-CoV-2)); test: SARS-CoV-2 3C-like (3CL) protease fluorescence assay (FRET); conditions: recombinant SARS-CoV-2 3CL-protease 10 nM, 30 min preincubation, peptide substrate, duplicate
pIC50: −log10 of the molar value.
reported.metric: pIC50

Before answering, review these 4 worked examples.
| entry.smiles | experimental.result |
| --- | --- |
| Cc1cccc(C)c1NC(=O)C(C)(C)C(=O)N(C)[C@@H](CC(C)C)C(=O)N1C[C@]2(C[C@H]1C#N)C(=O)Nc1ccccc12 | 6.00 to 7.00 |
| CC(C)C[C@H](NC(=O)C1(C(=O)NCC(C)(C)O)CCC1)C(=O)N1C[C@]2(C[C@H]1C#N)C(=O)Nc1ccccc12 | > 7.00 |
| CC(C)C[C@@H](C(=O)N1C[C@]2(C[C@H]1C#N)C(=O)Nc1ccccc12)N(C)C(=O)CC(=O)Nc1ccccn1 | > 7.00 |
| CC(C)C[C@@H](C(=O)N1C[C@]2(C[C@H]1C#N)C(=O)Nc1ccccc12)N(C)C(=O)CC(=O)NCc1ccccc1 | > 7.00 |

Looking up CC(C)C[C@@H](C(=O)N1C[C@]2(C[C@H]1C#N)C(=O)Nc1ccccc12)N(C)C(=O)CC(=O)Nc1cccc2ccccc12 , I found its pIC50 recorded as > 7.00

Looking up Cc1cccc(C)c1NC(=O)C1(C(=O)N[C@@H](CC(C)C)C(=O)N2C[C@]3(C[C@H]2C#N)C(=O)Nc2ccccc23)CCOCC1 , I found its pIC50 recorded as > 7.00

----------
Each record here notes measured pIC50.
target: SARS-CoV-2 3CL-protease (Severe acute respiratory syndrome coronavirus 2 (2019-nCoV) (SARS-CoV-2), UniProt P0DTD1); test: SARS-CoV-2 3C-like (3CL) protease fluorescence assay (FRET); details: recombinant SARS-CoV-2 3CL-protease 10 nM, 30 min preincubation, peptide substrate, duplicate
pIC50: −log10 of the molar value.

Before answering, review these 2 worked examples.
| entry.smiles | pIC50 |
| --- | --- |
| CC(C)C[C@@H](C(=O)N1C[C@]2(C[C@H]1C#N)C(=O)Nc1ccccc12)N(C)C(=O)C(C)(C)C(=O)Nc1cc(F)ccc1F | 6.00 to 7.00 |
| CC(C)C[C@@H](C(=O)N1C[C@]2(C[C@H]1C#N)C(=O)Nc1ccccc12)N(C)C(=O)CC(=O)N[C@H]1CCN(C(=O)OC(C)(C)C)C1 | > 7.00 |

Next compound, pIC50 to be filled in.
Looking up CC(C)C[C@@H](C(=O)N1C[C@]2(C[C@H]1C#N)C(=O)Nc1ccccc12)N(C)C(=O)CC(=O)NCC(C)(C)O , I found its pIC50 recorded as > 7.00

----------
target: SARS-CoV-2 3CL-protease (Severe acute respiratory syndrome coronavirus 2 (2019-nCoV) (SARS-CoV-2)); experiment: SARS-CoV-2 3C-like (3CL) protease fluorescence assay (FRET); conditions: recombinant SARS-CoV-2 3CL-protease 10 nM, 30 min preincubation, peptide substrate, duplicate
pIC50: −log10 of the molar value.
reported.metric: pIC50

Before answering, review these 4 worked examples.
| compound | pIC50 |
| --- | --- |
| Cc1cccc(C)c1NC(=O)CC(=O)N(C)[C@@H](CC(C)C)C(=O)N1C[C@]2(C[C@H]1C#N)C(=O)Nc1ccccc12 | > 7.00 |
| CC(C)C[C@@H](C(=O)N1C[C@]2(C[C@H]1C#N)C(=O)Nc1ccccc12)N(C)C(=O)C(C)(C)C(=O)O | < 6.00 |
| CC(C)C[C@@H](C(=O)N1C[C@]2(C[C@H]1C#N)C(=O)Nc1ccccc12)N(C)C(=O)CC(=O)Nc1cn[nH]c1 | > 7.00 |
| CC(C)CC(C(=O)Nc1cc(F)cc(F)c1)C(=O)N(C)[C@@H](CC(C)C)C(=O)N1C[C@]2(C[C@H]1C(N)=O)C(=O)Nc1ccccc12 (some centres unmarked) | > 7.00 |

Next compound, pIC50 to be filled in.
Looking up CC(C)C[C@@H](C(=O)N1C[C@]2(C[C@H]1C#N)C(=O)Nc1ccccc12)N(C)C(=O)CC(=O)Nc1cccc(F)c1 , I found its pIC50 recorded as > 7.00
